Assay System: T1, Sul7s T19G (Sulfolobus islandicus Rey15A, UniProt F0NBY5 1-59, T19G)
T1 sequence: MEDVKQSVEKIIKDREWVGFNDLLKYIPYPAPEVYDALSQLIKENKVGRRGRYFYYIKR
Test Details: BLI; BLI: 50 mM Tris-Cl pH 7.5, 100 mM NaCl, 1 mM EDTA, 0.02% Tween-20, 30 C; NMR: 20 mM potassium phosphate pH 7.0, 30 mM NaCl, 0.02% NaN3, 298 K
Condition Details: protein: recombinant; tags: untagged; label: 5'-biotin
Endpoint Name: Kd (µM)

[[record]]
binder = "TTTCTACCCTTTGGTGCTAATGCCCATACT (ssDNA) [S30 (S30-F)]"
measure_unit = "µM"
test_value = 14.1

